target-or-test-system: 5-hydroxytryptamine receptor 1D (Homo sapiens, UniProt P28221)
Sequence (P28221 whole entry): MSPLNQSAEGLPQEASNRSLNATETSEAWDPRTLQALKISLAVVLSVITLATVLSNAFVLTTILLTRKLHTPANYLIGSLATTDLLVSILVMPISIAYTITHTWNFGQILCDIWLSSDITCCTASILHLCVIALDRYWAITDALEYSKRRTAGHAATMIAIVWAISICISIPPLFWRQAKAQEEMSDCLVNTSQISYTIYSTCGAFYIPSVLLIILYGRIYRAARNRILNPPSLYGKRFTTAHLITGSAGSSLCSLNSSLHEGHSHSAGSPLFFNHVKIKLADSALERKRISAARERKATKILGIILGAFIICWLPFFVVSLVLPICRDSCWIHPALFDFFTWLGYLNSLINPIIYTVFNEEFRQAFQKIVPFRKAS
pKi: −log10 of the molar value.
measured-quantity: pKi

- compound: "O=C(CCCN1CCC2(CC1)C(=O)NCN2c1ccccc1)c1ccc(F)cc1"
  target-or-test-system: "5-hydroxytryptamine receptor 1D (Homo sapiens, UniProt P28221)"
  censoring-sign: "<"
  experimental-value: 5.00
- compound: "CC(C)NCC(O)COc1cccc2[nH]ccc12 (stereo not given)"
  target-or-test-system: "5-hydroxytryptamine receptor 1D (Homo sapiens, UniProt P28221)"
  censoring-sign: "="
  experimental-value: 5.31
- compound: "Cc1[nH]c2ccc(O)cc2c1CCN"
  target-or-test-system: "5-hydroxytryptamine receptor 1D (Homo sapiens, UniProt P28221)"
  censoring-sign: "="
  experimental-value: 6.07
- compound: "c1ccc2c(N3CCNCC3)cccc2c1"
  target-or-test-system: "5-hydroxytryptamine receptor 1D (Homo sapiens, UniProt P28221)"
  censoring-sign: "="
  experimental-value: 7.92
- compound: "CCCN(CCC)CCc1c[nH]c2ccc(C(N)=O)cc12"
  target-or-test-system: "5-hydroxytryptamine receptor 1D (Homo sapiens, UniProt P28221)"
  censoring-sign: "="
  experimental-value: 7.38
- compound: "c1ccc2nc(N3CCNCC3)ccc2c1"
  target-or-test-system: "5-hydroxytryptamine receptor 1D (Homo sapiens, UniProt P28221)"
  censoring-sign: "="
  experimental-value: 6.00
- compound: "Clc1cccc(N2CCNCC2)c1"
  target-or-test-system: "5-hydroxytryptamine receptor 1D (Homo sapiens, UniProt P28221)"
  censoring-sign: "="
  experimental-value: 6.44
- compound: "CN1C[C@H](CO)C=C2c3cccc4[nH]cc(c34)C[C@H]21"
  target-or-test-system: "5-hydroxytryptamine receptor 1D (Homo sapiens, UniProt P28221)"
  censoring-sign: "="
  experimental-value: 8.92
- compound: "CC[C@@H](CO)NC(=O)[C@@H]1C=C2c3cccc4c3c(cn4C)C[C@H]2N(C)C1"
  target-or-test-system: "5-hydroxytryptamine receptor 1D (Homo sapiens, UniProt P28221)"
  censoring-sign: "="
  experimental-value: 7.60
- compound: "COc1cc(N)c(Cl)cc1C(=O)NC1CN2CCC1CC2 (stereo not given) [ZACOPRIDE,R]"
  target-or-test-system: "5-hydroxytryptamine receptor 1D (Homo sapiens, UniProt P28221)"
  censoring-sign: "<"
  experimental-value: 5.00

* * *

pKi: −log10 of the molar value.
Each entry below carries its measured pKi, system: 5-hydroxytryptamine receptor 1B (Homo sapiens).
Sequence (P28222 whole entry): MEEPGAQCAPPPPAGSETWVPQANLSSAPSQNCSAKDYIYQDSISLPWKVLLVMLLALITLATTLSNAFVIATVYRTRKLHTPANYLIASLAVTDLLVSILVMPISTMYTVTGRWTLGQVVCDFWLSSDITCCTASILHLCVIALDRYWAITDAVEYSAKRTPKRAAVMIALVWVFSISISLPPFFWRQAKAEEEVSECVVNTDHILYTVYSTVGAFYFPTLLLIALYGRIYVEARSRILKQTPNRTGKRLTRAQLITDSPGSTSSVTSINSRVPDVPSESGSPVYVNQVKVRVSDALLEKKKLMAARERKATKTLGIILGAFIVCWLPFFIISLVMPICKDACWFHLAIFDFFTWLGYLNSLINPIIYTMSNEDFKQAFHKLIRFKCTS

- compound: "Cc1[nH]c2ccc(O)cc2c1CCN"
  censoring-sign: "="
  pKi: 6.04
- compound: "COc1cc(N)c(Cl)cc1C(=O)NC1CN2CCC1CC2 (centres undefined) [ZACOPRIDE,R]"
  censoring-sign: "<"
  pKi: 5.00
- compound: "CN1C[C@H](CO)C=C2c3cccc4[nH]cc(c34)C[C@H]21"
  censoring-sign: "="
  pKi: 9.20
- compound: "CC(C)NCC(O)COc1cccc2[nH]ccc12 (centres undefined)"
  censoring-sign: "="
  pKi: 5.39
- compound: "Clc1cccc(N2CCNCC2)c1"
  censoring-sign: "="
  pKi: 6.67
- compound: "O=C(CCCN1CCC2(CC1)C(=O)NCN2c1ccccc1)c1ccc(F)cc1"
  censoring-sign: "="
  pKi: 6.00
- compound: "CCCN(CCC)CCc1c[nH]c2ccc(C(N)=O)cc12"
  censoring-sign: "="
  pKi: 7.89
- compound: "c1ccc2nc(N3CCNCC3)ccc2c1"
  censoring-sign: "="
  pKi: 6.00
- compound: "CC[C@@H](CO)NC(=O)[C@@H]1C=C2c3cccc4c3c(cn4C)C[C@H]2N(C)C1"
  censoring-sign: "="
  pKi: 8.44
